System: 171881-019-R-J1-PDC tumor spheroids, viability
Assay: Anticancer human tumor 171881-019-R-J1-PDC patient-derived invasive breast carcinoma cell line growth inhibition [GQUAD]; active means viability on the fitted dose curve at most 10% of control; inactive means the rest
Details: second compound 0.316 µM; first compound 0.316 µM; spheroids with HUVEC and MSC
Possible outcomes: active, inactive

>>> label_class("C=CC(=O)N1CCN(c2nc(=O)n(-c3c(C)ccnc3C(C)C)c3nc(-c4c(O)cccc4F)c(F)cc23)C(C)C1 (stereo unspecified) + Cc1[nH]c2ccc(F)cc2c1-c1nc2c3cccnc3c3ncccc3c2[nH]1")
"inactive"
>>> label_class("CC1COCCN1c1cc(C2(O)CC3CCC(C2)O3)c2cnn(-c3ccn[nH]3)c2n1 (stereo unspecified) + Cc1cnc(CNC(=O)c2c(=O)c3ccc(N4CCCN(C)CC4)nc3n3c2sc2ccccc23)cn1")
"inactive"
>>> label_class("CC(C)n1c(=O)n(C)c2cnc3cc(F)c(-c4ccc(OCCCN5CCCCC5)nc4)cc3c21 + Cc1cnc(CNC(=O)c2c(=O)c3ccc(N4CCCN(C)CC4)nc3n3c2sc2ccccc23)cn1")
"inactive"
>>> label_class("COc1cccc2c1C(=O)c1c(O)c3c(c(O)c1C2=O)CC(O)(C(=O)CO)CC3OC1CC(N)C(O)C(C)O1 (stereo unspecified) + Cc1[nH]c2ccc(F)cc2c1-c1nc2c3cccnc3c3ncccc3c2[nH]1")
"inactive"
>>> label_class("O=c1[nH]cc(F)c(=O)[nH]1 + Cc1[nH]c2ccc(F)cc2c1-c1nc2c3cccnc3c3ncccc3c2[nH]1")
"inactive"
>>> label_class("COc1cc(C2c3cc4c(cc3C(OC3OC5COC(C)OC5C(O)C3O)C3COC(=O)C23)OCO4)cc(OC)c1O (stereo unspecified) + CN(C)c1ccc(Nc2c3ccc(NC(=O)CCN4CCCC4)cc3nc3cc(NC(=O)CCN4CCCC4)ccc23)cc1")
"inactive"
>>> label_class("Cc1[nH]c2ccccc2c1CCNCc1ccc(/C=C/C(=O)NO)cc1 + CN(C)c1ccc(Nc2c3ccc(NC(=O)CCN4CCCC4)cc3nc3cc(NC(=O)CCN4CCCC4)ccc23)cc1")
"active"
>>> label_class("CC1COCCN1c1cc(C2(O)CC3CCC(C2)O3)c2cnn(-c3ccn[nH]3)c2n1 (stereo unspecified) + Cc1[nH]c2ccc(F)cc2c1-c1nc2c3cccnc3c3ncccc3c2[nH]1")
"active"
>>> label_class("COc1cc(C2c3cc4c(cc3C(OC3OC5COC(C)OC5C(O)C3O)C3COC(=O)C23)OCO4)cc(OC)c1O (stereo unspecified) + Cc1cnc(CNC(=O)c2c(=O)c3ccc(N4CCCN(C)CC4)nc3n3c2sc2ccccc23)cn1")
"inactive"
>>> label_class("CC[C@@]1(O)C(=O)OCc2c1cc1n(c2=O)Cc2cc3c(CN(C)C)c(O)ccc3nc2-1 + Cc1[nH]c2ccc(F)cc2c1-c1nc2c3cccnc3c3ncccc3c2[nH]1")
"inactive"
>>> label_class("Cn1ncnc1[C@H]1c2n[nH]c(=O)c3cc(F)cc(c23)N[C@@H]1c1ccc(F)cc1 + Cc1cnc(CNC(=O)c2c(=O)c3ccc(N4CCCN(C)CC4)nc3n3c2sc2ccccc23)cn1")
"inactive"

---

Test system: 171881-019-R-J1-PDC tumor spheroids, viability
Test: Anticancer human tumor 171881-019-R-J1-PDC cell line growth inhibition [GQUAD]; active = viability on the fitted dose curve at most 10% of control; inactive = the rest;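 further: spheroids exposed to compounds for 7 days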
Conditions: second compound 3.16 µM; first compound 10 µM; spheroids with HUVEC and MSC
Possible outcomes: active, inactive

>>> label_class("COc1cc(C2c3cc4c(cc3C(OC3OC5COC(C)OC5C(O)C3O)C3COC(=O)C23)OCO4)cc(OC)c1O (configuration not stated) + Cc1cnc(CNC(=O)c2c(=O)c3ccc(N4CCCN(C)CC4)nc3n3c2sc2ccccc23)cn1")
"inactive"
>>> label_class("CC(=O)O[C@H]1C(=O)[C@@]2(C)[C@H]([C@H](OC(=O)c3ccccc3)[C@]3(O)C[C@H](OC(=O)[C@H](O)[C@@H](NC(=O)c4ccccc4)c4ccccc4)C(C)=C1C3(C)C)[C@]1(OC(C)=O)CO[C@@H]1C[C@@H]2O + Cc1[nH]c2ccc(F)cc2c1-c1nc2c3cccnc3c3ncccc3c2[nH]1")
"active"
